Below, each entry is listed with its recorded MBIC.
System: Staphylococcus epidermidis
test-method-notes: Antimicrobial activity against coagulase-negative Staphylococcus epidermidis isolate WTBF-45 assessed as inhibition of bacterial biofilm after 18 hrs by broth microdilution method
Assay type: functional
Hi! Could you send only the number? It should be in µM, unit omitted.

Use these answered entries as a reference point.
CCOc1cc(/C=C2\SC(=S)N(c3cccc(F)c3)C2=O)ccc1O
50
CCOc1cc(/C=C2\SC(=S)N(c3ccc(F)cc3)C2=O)ccc1O
25
CCOc1cc(/C=C2\SC(=S)N(c3cccnc3)C2=O)ccc1O
17.7

From here, focus on the item given below.
Query: Please report the recorded MBIC for `C=CCOc1cc(/C=C2\SC(=S)N(c3ccc(F)cc3)C2=O)ccc1O` .
Reply: 25
